target: T1, ROR1 naturally expressed on human tumor cell lines (A549, Jeko-1, SW620, PA-1) (human, UniProt Q01973 30-937); assay: FACS on PA-1 cells naturally expressing ROR1
T1 construct: whole, on cells; also called cells expressing ROR1
T1 sequence (Q01973 30-937): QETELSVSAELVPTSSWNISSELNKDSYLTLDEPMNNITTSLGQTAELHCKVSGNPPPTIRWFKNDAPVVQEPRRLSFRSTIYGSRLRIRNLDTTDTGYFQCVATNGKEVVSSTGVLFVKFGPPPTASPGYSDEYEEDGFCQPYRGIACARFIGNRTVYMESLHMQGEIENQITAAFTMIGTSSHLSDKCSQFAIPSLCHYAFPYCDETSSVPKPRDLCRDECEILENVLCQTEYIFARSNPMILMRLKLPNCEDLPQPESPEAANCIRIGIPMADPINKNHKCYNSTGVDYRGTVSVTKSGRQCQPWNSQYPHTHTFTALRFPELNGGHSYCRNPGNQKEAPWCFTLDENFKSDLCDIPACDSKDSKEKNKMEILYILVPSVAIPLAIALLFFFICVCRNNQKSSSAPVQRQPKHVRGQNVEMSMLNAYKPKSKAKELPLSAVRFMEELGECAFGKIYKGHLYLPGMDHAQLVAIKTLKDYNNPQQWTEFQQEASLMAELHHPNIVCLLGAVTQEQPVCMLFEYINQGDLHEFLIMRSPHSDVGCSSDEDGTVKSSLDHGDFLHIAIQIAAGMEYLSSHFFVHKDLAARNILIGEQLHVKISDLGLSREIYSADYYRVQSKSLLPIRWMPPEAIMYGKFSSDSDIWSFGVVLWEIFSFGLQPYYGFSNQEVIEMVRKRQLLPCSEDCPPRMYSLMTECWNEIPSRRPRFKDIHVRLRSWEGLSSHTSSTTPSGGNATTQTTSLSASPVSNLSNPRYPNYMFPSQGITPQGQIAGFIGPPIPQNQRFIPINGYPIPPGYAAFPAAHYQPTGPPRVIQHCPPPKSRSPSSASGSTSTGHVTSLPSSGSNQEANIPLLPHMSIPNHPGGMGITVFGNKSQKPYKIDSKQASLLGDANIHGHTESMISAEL
pEC50: −log10 of the molar value.
pEC50 listing for selected binders.
property measured: pEC50

binder | reported value
UC-961 (antibody, V domains shown) VH: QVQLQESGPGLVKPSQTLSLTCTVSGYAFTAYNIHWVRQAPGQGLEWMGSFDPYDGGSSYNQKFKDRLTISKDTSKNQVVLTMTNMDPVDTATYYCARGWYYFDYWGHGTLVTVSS VL: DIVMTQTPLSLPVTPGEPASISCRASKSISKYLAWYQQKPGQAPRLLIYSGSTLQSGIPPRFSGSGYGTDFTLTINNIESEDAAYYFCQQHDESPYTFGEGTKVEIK | 9.90
hz137G11D10-1.2 (antibody, human IgG1, kappa, V domains shown, Humanized, human IgG1/kappa) VH: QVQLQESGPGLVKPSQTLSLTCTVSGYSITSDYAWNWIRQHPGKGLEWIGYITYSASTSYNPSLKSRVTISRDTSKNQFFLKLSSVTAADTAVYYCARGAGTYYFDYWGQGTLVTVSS VL: ETTLTQSPAFMSATPGDKVNISCITSTDIDEDMNWYQQKPGEAAKLIISEDNSLRPGIPPRFSSSGYGTDFTLTINNIESEDAAYYFCLQTNNLPLTFGQGTKVEIKR | 10.04
hz137G11D10-2.1 (antibody, human IgG1, kappa, V domains shown, Humanized, human IgG1/kappa) VH: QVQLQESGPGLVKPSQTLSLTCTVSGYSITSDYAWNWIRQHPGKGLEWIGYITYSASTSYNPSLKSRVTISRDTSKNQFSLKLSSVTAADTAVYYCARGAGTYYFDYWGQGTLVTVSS VL: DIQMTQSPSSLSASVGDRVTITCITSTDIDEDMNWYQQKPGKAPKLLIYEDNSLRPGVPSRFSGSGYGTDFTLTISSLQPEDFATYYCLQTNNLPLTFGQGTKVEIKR | 10.28
hz137G11D10-3.2 (antibody, human IgG1, kappa, V domains shown, Humanized, human IgG1/kappa) VH: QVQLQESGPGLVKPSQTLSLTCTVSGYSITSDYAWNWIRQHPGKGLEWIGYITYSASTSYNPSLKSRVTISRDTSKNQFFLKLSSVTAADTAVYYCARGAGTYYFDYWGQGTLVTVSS VL: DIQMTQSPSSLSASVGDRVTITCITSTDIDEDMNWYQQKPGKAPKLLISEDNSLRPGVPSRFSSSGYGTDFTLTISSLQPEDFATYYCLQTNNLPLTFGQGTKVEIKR | 10.27
